System: IGROV1 ovarian
procedure.summary: NCI-60 one-dose screen, 48 h
setup.conditions: 10 µM unless noted
This is part of a sample that, as a whole, favours compounds with a hit. Of some 83,000 tested, about 20% had one in any assay. The source made the active and inactive calls. How the source made its calls: active means growth percent below 10; inactive means the rest.
Outcomes you can answer with include only these: YES = active, NO = inactive

The examples below pair each entry with its known result.
# molecule, class.label
rows = [
    ("CCCCNCC(O)c1cc(-c2ccc(C(F)(F)F)cc2)nc(-c2ccc(C(F)(F)F)cc2)c1 (stereo not drawn)", "YES"),
    ("C=CCn1c(SCC(=O)Nc2ccc(/C(C)=N\\O)cc2)nnc1-c1cc(-c2ccc(Cl)cc2)nc2ccccc12", "YES"),
    ("Cc1ccc(-c2nc3ccccc3c(=O)n2/N=C/c2cccc3ccccc23)cc1", "NO"),
    ("COc1ccc(/C=C2\\Cc3c(Br)cccc3C2=O)c(OC)c1", "NO"),
    ("CC1=NOCC(=O)N1", "NO"),
    ("COc1ccccc1/C=N\\NC(=S)Nc1ccc(F)cc1", "NO"),
    ("CCOc1cccc(/C=N/NC(=O)c2ccc(Nc3ccnc(C(F)(F)F)c3)cc2)c1O", "YES"),
    ("C#CC[C@@H]1C[C@]2(C)[C@H]3CC=C4[C@H]5[C@@H](C)[C@H](C)CC[C@]5(C(=O)NCCCCN)CC[C@@]4(C)[C@]3(C)CC[C@H]2C(C)(C)[C@H]1OC(C)=O", "NO"),
]

Exercise: Tell me the recorded outcome of this test for CCN(CC)CCCC(C)Nc1cnc(C(=O)Nc2ccc(Cl)c3cccnc23)cn1 (stereo not drawn) .
Key: NO

Exercise: Tell me the recorded outcome of this test for `CCN(CC)C(Cl)=Nc1ccc(Cl)cc1` .
Key: NO

Exercise: Tell me the recorded outcome of this test for `Clc1ccc2c(c1)-c1ccccc1C1=NCCN12` .
Key: NO

Exercise: Tell me the recorded outcome of this test for `COc1ccc(C2=Nn3c(nnc3-c3ccc(Cl)cc3N)SC2)cc1` .
Key: NO

Exercise: Tell me the recorded outcome of this test for `COS(=O)(=O)CCN(CCOS(C)(=O)=O)S(C)(=O)=O` .
Key: NO
